# Study Target: hGYS1 enzyme (recombinant hGYS1/GN1 protein) (Homo sapiens (Human), UniProt P13807)
# Sequence (P13807 whole entry): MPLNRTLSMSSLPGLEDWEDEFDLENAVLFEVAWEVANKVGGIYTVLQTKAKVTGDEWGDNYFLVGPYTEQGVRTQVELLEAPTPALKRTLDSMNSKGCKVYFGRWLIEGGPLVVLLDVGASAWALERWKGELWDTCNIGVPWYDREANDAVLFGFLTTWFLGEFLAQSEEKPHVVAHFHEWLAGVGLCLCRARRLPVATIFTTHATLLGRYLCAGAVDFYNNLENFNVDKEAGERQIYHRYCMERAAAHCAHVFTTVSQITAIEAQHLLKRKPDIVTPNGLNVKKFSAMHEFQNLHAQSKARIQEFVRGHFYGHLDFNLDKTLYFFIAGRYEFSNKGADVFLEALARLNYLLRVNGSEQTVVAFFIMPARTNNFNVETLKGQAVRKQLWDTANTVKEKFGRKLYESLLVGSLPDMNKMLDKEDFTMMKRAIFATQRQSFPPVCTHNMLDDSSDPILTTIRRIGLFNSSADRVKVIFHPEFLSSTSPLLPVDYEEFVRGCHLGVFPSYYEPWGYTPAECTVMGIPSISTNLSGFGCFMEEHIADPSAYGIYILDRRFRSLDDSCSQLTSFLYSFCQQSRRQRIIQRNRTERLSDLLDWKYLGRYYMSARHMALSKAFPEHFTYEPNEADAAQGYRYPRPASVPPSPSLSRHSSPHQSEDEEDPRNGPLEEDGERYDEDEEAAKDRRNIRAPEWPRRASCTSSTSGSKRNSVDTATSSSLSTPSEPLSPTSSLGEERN
# Sequence (P46976 whole entry partner): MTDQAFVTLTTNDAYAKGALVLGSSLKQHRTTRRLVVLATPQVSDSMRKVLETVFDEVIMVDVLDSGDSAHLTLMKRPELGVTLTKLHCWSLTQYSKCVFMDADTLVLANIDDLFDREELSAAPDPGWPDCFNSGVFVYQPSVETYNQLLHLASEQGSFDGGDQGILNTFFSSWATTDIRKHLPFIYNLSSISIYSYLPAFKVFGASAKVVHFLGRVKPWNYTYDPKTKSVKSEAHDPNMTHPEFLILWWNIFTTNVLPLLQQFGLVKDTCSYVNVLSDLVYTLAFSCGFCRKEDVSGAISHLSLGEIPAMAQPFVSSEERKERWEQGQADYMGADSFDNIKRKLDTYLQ
# Experimental Protocol: GYS1 coupled enzyme assay (PK/LDH)
# Condition Label: hGYS1/GN1 50 nM, UDP-Glucose 0.8 mM, G6P 1 mM; geometric mean of at least 2 runs
Cut-off 0.1 µM on IC50: below means Y, at or above means N.

Worked cases, answers included:
Molecule	Study Target	Classification
CC(=O)NCCC(=O)N1C[C@H](F)C[C@H]1C(=O)N[C@@H](c1ccccc1)c1ccc(C(C)C)cc1	hGYS1 enzyme (recombinant hGYS1/GN1 protein) (Homo sapiens (Human), UniProt P13807)	N
CC(C)c1ccc([C@@H](NC(=O)[C@@H]2C[C@@H](F)CN2C(=O)c2cccn3c(=O)[nH]nc23)c2ccccc2)cc1	hGYS1 enzyme (recombinant hGYS1/GN1 protein) (Homo sapiens (Human), UniProt P13807)	N

Q. Does the reported IC50 of the following molecule sit strictly below 0.1 µM? O=C(N[C@@H](c1ccccc1)c1ccc(C2CC2)c(F)n1)[C@@H]1C[C@@H](F)CN1C(=O)Cc1[nH]nnc1C(F)F
A. Y

Q. Does the reported IC50 of the following molecule sit strictly below 0.1 µM? CC(C)c1ccc([C@@H](NC(=O)[C@@H]2C[C@@H](F)CN2C(=O)Cn2ncc(N(C)C)n2)c2ccccc2)nc1
A. Y

Q. Does the reported IC50 of the following molecule sit strictly below 0.1 µM? CC(C)c1ccc([C@@H](NC(=O)[C@@H]2CC[C@H](C)N2C(=O)Cc2cnn[nH]2)c2ccccc2)cc1F
A. Y

Q. Does the reported IC50 of the following molecule sit strictly below 0.1 µM? CC(=O)N1C[C@H](F)C[C@H]1C(=O)N[C@@H](c1cccc(-c2nnc[nH]2)c1)c1ccc(C(C)C)c(F)n1 (single isomer, unassigned)
A. N
